- System: A375 multi-cell spheroids with HUVEC/MSC, viability
- assay protocol: Anticancer human tumor A375 cell line growth inhibition [GQUAD];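 note: spheroids exposed to compounds for seven days before readout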
- measurement context: second compound 10 µM; first compound 0.1 µM; active compounds read low
For each entry below, report its viability, T/C value.
Kindly answer with a numeric value in %, unit omitted.

Query: Any idea what viability, T/C was measured for COc1cc(C2c3cc4c(cc3C(OC3OC5COC(C)OC5C(O)C3O)C3COC(=O)C23)OCO4)cc(OC)c1O (centres undefined) + Cc1cnc(CNC(=O)c2c(=O)c3ccc(N4CCCN(C)CC4)nc3n3c2sc2ccccc23)cn1 ?
Response: 28.1

Query: Which viability, T/C is listed for CC(C)n1c(=O)n(C)c2cnc3cc(F)c(-c4ccc(OCCCN5CCCCC5)nc4)cc3c21 + CN(C)c1ccc(Nc2c3ccc(NC(=O)CCN4CCCC4)cc3nc3cc(NC(=O)CCN4CCCC4)ccc23)cc1 ?
Response: 96.4

Query: Give its viability, T/C value. Item: CC(C)n1c(=O)n(C)c2cnc3cc(F)c(-c4ccc(OCCCN5CCCCC5)nc4)cc3c21 + Cc1[nH]c2ccc(F)cc2c1-c1nc2c3cccnc3c3ncccc3c2[nH]1
Response: 101

Query: So what's the measured viability, T/C for this one? O=c1[nH]cc(F)c(=O)[nH]1 + Cc1[nH]c2ccc(F)cc2c1-c1nc2c3cccnc3c3ncccc3c2[nH]1
Response: 81.6

Query: Recorded viability, T/C of CC1COCCN1c1cc(-c2ccnn2C)c2ccnc(-c3ccn[nH]3)c2n1 (centres undefined) + CN(C)c1ccc(Nc2c3ccc(NC(=O)CCN4CCCC4)cc3nc3cc(NC(=O)CCN4CCCC4)ccc23)cc1 , please.
Response: 74.2

Query: Given the entry COc1cc(C2c3cc4c(cc3C(OC3OC5COC(C)OC5C(O)C3O)C3COC(=O)C23)OCO4)cc(OC)c1O (centres undefined) + CN(C)c1ccc(Nc2c3ccc(NC(=O)CCN4CCCC4)cc3nc3cc(NC(=O)CCN4CCCC4)ccc23)cc1 , report its measured viability, T/C.
Response: 99.9

Query: Entry under review: Nc1ccn(C2OC(CO)C(O)C2(F)F)c(=O)n1 (centres undefined) + CN(C)c1ccc(Nc2c3ccc(NC(=O)CCN4CCCC4)cc3nc3cc(NC(=O)CCN4CCCC4)ccc23)cc1 . Reported viability, T/C?
Response: 5.96

Query: What value of measured viability, T/C is listed for COc1ncnc(C2CC2)c1-c1ncc2cnn(Cc3ccc(-c4nc(C(F)(F)F)cn4C(C)C)cc3)c2n1 + Cc1[nH]c2ccc(F)cc2c1-c1nc2c3cccnc3c3ncccc3c2[nH]1 ?
Response: 92.9

Query: Requested field: viability, T/C. Item: CC(=O)O[C@H]1C(=O)[C@@]2(C)[C@H]([C@H](OC(=O)c3ccccc3)[C@]3(O)C[C@H](OC(=O)[C@H](O)[C@@H](NC(=O)c4ccccc4)c4ccccc4)C(C)=C1C3(C)C)[C@]1(OC(C)=O)CO[C@@H]1C[C@@H]2O + CN(C)c1ccc(Nc2c3ccc(NC(=O)CCN4CCCC4)cc3nc3cc(NC(=O)CCN4CCCC4)ccc23)cc1
Response: 22

Query: Look up viability, T/C for this compound: COc1cccc2c1C(=O)c1c(O)c3c(c(O)c1C2=O)CC(O)(C(=O)CO)CC3OC1CC(N)C(O)C(C)O1 (centres undefined) + Cc1[nH]c2ccc(F)cc2c1-c1nc2c3cccnc3c3ncccc3c2[nH]1
Response: 72

Query: Item under review: COc1cccc2c1C(=O)c1c(O)c3c(c(O)c1C2=O)CC(O)(C(=O)CO)CC3OC1CC(N)C(O)C(C)O1 (centres undefined) + CN(C)c1ccc(Nc2c3ccc(NC(=O)CCN4CCCC4)cc3nc3cc(NC(=O)CCN4CCCC4)ccc23)cc1 . Reported viability, T/C?
Response: 77.5

Query: What value of viability, T/C has been recorded for this entry: CCCS(=O)(=O)Nc1ccc(F)c(C(=O)c2c[nH]c3ncc(-c4ccc(Cl)cc4)cc23)c1F + CN(C)c1ccc(Nc2c3ccc(NC(=O)CCN4CCCC4)cc3nc3cc(NC(=O)CCN4CCCC4)ccc23)cc1
Response: 12.4

Query: # get_value(readout='viability, T/C', item= C=CCn1c(=O)c2cnc(Nc3ccc(N4CCN(C)CC4)cc3)nc2n1-c1cccc(C(C)(C)O)n1 + CN(C)c1ccc(Nc2c3ccc(NC(=O)CCN4CCCC4)cc3nc3cc(NC(=O)CCN4CCCC4)ccc23)cc1 )
Response: 93.3

Query: Bench note: what viability, T/C did CC1COCCN1c1cc(-c2ccnn2C)c2ccnc(-c3ccn[nH]3)c2n1 (centres undefined) + Cc1cnc(CNC(=O)c2c(=O)c3ccc(N4CCCN(C)CC4)nc3n3c2sc2ccccc23)cn1 show?
Response: 27.9

----------
- System: A375 multi-cell spheroids with HUVEC/MSC, viability
- assay protocol: Anticancer human tumor A375 cell line growth inhibition [GQUAD];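 note: spheroids exposed to compounds for seven days before readout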
- measurement context: second compound 3.16 µM; first compound 10 µM; active compounds read low
Lab note: compare viability, T/C with 10%, writing Fulfilled if less and Not fulfilled if equal or more.

Query: In plain terms, does O=C(c1cc(Cc2n[nH]c(=O)c3ccccc23)ccc1F)N1CCN(C(=O)C2CC2)CC1 + Cc1[nH]c2ccc(F)cc2c1-c1nc2c3cccnc3c3ncccc3c2[nH]1 come in under 10% for viability, T/C?
Response: Not fulfilled

Query: Does the reported viability, T/C of the following compound sit strictly below 10%? C=CCn1c(=O)c2cnc(Nc3ccc(N4CCN(C)CC4)cc3)nc2n1-c1cccc(C(C)(C)O)n1 + Cc1cnc(CNC(=O)c2c(=O)c3ccc(N4CCCN(C)CC4)nc3n3c2sc2ccccc23)cn1
Response: Not fulfilled

Query: Identify whether the compound CC1COCCN1c1cc(C2(O)CC3CCC(C2)O3)c2cnn(-c3ccn[nH]3)c2n1 (stereo not drawn) + Cc1cnc(CNC(=O)c2c(=O)c3ccc(N4CCCN(C)CC4)nc3n3c2sc2ccccc23)cn1 records viability, T/C below 10%.
Response: Fulfilled

Query: In plain terms, does O=C(c1cc(Cc2n[nH]c(=O)c3ccccc23)ccc1F)N1CCN(C(=O)C2CC2)CC1 + CN(C)c1ccc(Nc2c3ccc(NC(=O)CCN4CCCC4)cc3nc3cc(NC(=O)CCN4CCCC4)ccc23)cc1 come in under 10% for viability, T/C?
Response: Not fulfilled

Query: In the record for CC(C)(O)C1CCC(Nc2ccc3ncc(-c4cccc(C(F)(F)F)c4)n3n2)CC1 (stereo not drawn) + CN(C)c1ccc(Nc2c3ccc(NC(=O)CCN4CCCC4)cc3nc3cc(NC(=O)CCN4CCCC4)ccc23)cc1 , is viability, T/C less than 10%?
Response: Not fulfilled

Query: Field: below-cutoff. Rule: recorded viability, T/C strictly less than 10%. Subject: C=CC(=O)N1CCN(c2nc(=O)n(-c3c(C)ccnc3C(C)C)c3nc(-c4c(O)cccc4F)c(F)cc23)C(C)C1 (stereo not drawn) + CN(C)c1ccc(Nc2c3ccc(NC(=O)CCN4CCCC4)cc3nc3cc(NC(=O)CCN4CCCC4)ccc23)cc1
Response: Not fulfilled

Query: Answer whether the compound CC1COCCN1c1cc(C2(O)CC3CCC(C2)O3)c2cnn(-c3ccn[nH]3)c2n1 (stereo not drawn) + Cc1[nH]c2ccc(F)cc2c1-c1nc2c3cccnc3c3ncccc3c2[nH]1 has viability, T/C strictly less than 10%
Response: Fulfilled

Query: Please determine if CC(C)n1c(=O)n(C)c2cnc3cc(F)c(-c4ccc(OCCCN5CCCCC5)nc4)cc3c21 + CN(C)c1ccc(Nc2c3ccc(NC(=O)CCN4CCCC4)cc3nc3cc(NC(=O)CCN4CCCC4)ccc23)cc1 is below 10% in terms of viability, T/C.
Response: Not fulfilled

----------
Provide the reported viability, T/C of each item.
- Test system: A375 multi-cell spheroids with HUVEC/MSC, viability
- assay protocol: Anticancer human tumor A375 cell line growth inhibition [GQUAD];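 note: spheroids exposed to compounds for seven days before readout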
- measurement context: second compound 3.16 µM; first compound 0.1 µM; active compounds read low
Please state the figure in %; there is no need to write the unit.

Query: Given the compound C=CC(=O)N1CCN(c2nc(=O)n(-c3c(C)ccnc3C(C)C)c3nc(-c4c(O)cccc4F)c(F)cc23)C(C)C1 (centres undefined) + Cc1cnc(CNC(=O)c2c(=O)c3ccc(N4CCCN(C)CC4)nc3n3c2sc2ccccc23)cn1 , what is its reported viability, T/C?
Response: 32.5

Query: I am curious: what viability, T/C value has been reported for C=CC(=O)N1CCN(c2nc(=O)n(-c3c(C)ccnc3C(C)C)c3nc(-c4c(O)cccc4F)c(F)cc23)C(C)C1 (centres undefined) + CN(C)c1ccc(Nc2c3ccc(NC(=O)CCN4CCCC4)cc3nc3cc(NC(=O)CCN4CCCC4)ccc23)cc1 ?
Response: 90.7

Query: Param item = O=C(NO)c1cnc(N2CCN(S(=O)(=O)c3ccc4ccccc4c3)CC2)nc1 + Cc1cnc(CNC(=O)c2c(=O)c3ccc(N4CCCN(C)CC4)nc3n3c2sc2ccccc23)cn1 ; retrieve measured viability, T/C.
Response: 23.3

Query: Endpoint output: viability, T/C of COc1cc(C2c3cc4c(cc3C(OC3OC5COC(C)OC5C(O)C3O)C3COC(=O)C23)OCO4)cc(OC)c1O (centres undefined) + Cc1[nH]c2ccc(F)cc2c1-c1nc2c3cccnc3c3ncccc3c2[nH]1 . Value?
Response: 86.6
